target: human orexin-2 receptor (Homo sapiens)
Construct: expressed in transfected cells; host or cells: CHO cells (grown under G418 selection)
Sequence (O43614 1-444): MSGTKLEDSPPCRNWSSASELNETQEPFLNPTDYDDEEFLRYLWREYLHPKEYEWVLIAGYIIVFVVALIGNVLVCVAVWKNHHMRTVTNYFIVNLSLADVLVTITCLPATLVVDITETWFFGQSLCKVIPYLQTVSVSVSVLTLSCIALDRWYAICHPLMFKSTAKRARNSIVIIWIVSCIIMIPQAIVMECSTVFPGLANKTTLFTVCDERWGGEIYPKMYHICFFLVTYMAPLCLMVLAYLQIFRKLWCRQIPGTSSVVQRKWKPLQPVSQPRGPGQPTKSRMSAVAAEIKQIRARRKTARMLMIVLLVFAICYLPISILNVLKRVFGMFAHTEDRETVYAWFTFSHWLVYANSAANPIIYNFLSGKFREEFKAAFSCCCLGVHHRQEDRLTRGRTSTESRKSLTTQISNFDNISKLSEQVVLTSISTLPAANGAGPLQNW
test.summary: FLIPR Ca2+ flux assay, OX2R
Format: cell-based
condition.context: OX2R over OX1R, from FLIPR values
reported.property: Fold Selective

Illustrative cases are given below, each with its answer.
- record.smiles: "C[C@@H]1CCN(c2cccc(N3CCN(C)C3=O)n2)CCN1C(=O)c1ccccc1-n1nccn1"
  reported.result: 46
- record.smiles: "CC(C)C(=O)N(C)c1cccc(N2CC[C@@H](C)N(C(=O)c3ccccc3-n3nccn3)CC2)n1"
  reported.result: 208
- record.smiles: "C[C@@H]1CCN(c2cccc(N3CCN(C)C3=O)n2)CCN1C(=O)c1cccc(F)c1-n1nccn1"
  reported.result: 55
- record.smiles: "C[C@@H]1CCN(c2cccc(C(C)(C)O)n2)CCN1C(=O)c1ccccc1-n1nccn1"
  reported.result: 61
- record.smiles: "C[C@@H]1CCN(c2cccc(N(C)C(=O)C3CC3)n2)CCN1C(=O)c1ccccc1-n1nccn1"
  reported.result: 128

I: C[C@@H]1CCN(c2cccc(N3CCN(C)C3=O)n2)CCN1C(=O)c1cc(F)ccc1-n1nccn1
II: C[C@@H]1CCN(c2nccn3ccnc23)CCN1C(=O)c1ccccc1C1(C#N)CC1
Given I and II , report the one with the higher recorded Fold Selective. Identify your selection by its label.
II
(II: 153, I: 50)
